- system: hCA I (Homo sapiens, UniProt P00915)
- Construct: gene CA1; recombinant, obtained in-house; cytosolic alpha-CA
- Sequence (P00915 2-261): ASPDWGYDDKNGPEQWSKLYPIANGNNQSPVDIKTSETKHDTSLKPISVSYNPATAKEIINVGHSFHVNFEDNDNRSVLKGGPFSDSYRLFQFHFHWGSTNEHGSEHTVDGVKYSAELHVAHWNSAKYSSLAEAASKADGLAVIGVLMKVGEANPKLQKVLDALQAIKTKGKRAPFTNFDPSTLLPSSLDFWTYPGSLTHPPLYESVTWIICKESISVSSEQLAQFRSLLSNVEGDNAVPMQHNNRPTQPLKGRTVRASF
- assayRemarks: stopped-flow CO2 hydrase assay
- Assay type: biochemical
- conditionSummary: read-out: KI (nM) ^a / hCA I (α-CA)
# key: entry, value: Ki
measurementType: Ki (nM)

>>> df
                                    molecule  measurement
 0  C/C=C/C(=O)NC(=S)Nc1ccc(S(N)(=O)=O)cc1 [3j]         69.4
 1  NS(=O)(=O)c1ccc(NC(=S)NC(=O)c2ccc([N+](=O)[O-])cc2)cc1 [3l]         87.6
 2    CC(=O)NC(=S)Nc1ccc(S(N)(=O)=O)cc1 [3a]         85.2
 3  CC(C)CC(=O)NC(=S)Nc1ccc(S(N)(=O)=O)cc1 [3f]         36.4
 4  NS(=O)(=O)c1ccc(NC(=S)NC(=O)Cc2cccc3ccccc23)cc1 [3i]         60.5
 5  CCCCCC(=O)NC(=S)Nc1ccc(S(N)(=O)=O)cc1 [3g]         13.3
 6   CCC(=O)NC(=S)Nc1ccc(S(N)(=O)=O)cc1 [3b]         58.3
 7  NS(=O)(=O)c1ccc(NC(=S)NC(=O)C2CCCCC2)cc1 [3h]         67.8
 8  NS(=O)(=O)c1ccc(NC(=S)NC(=O)/C=C/c2ccccc2)cc1 [3k]         47.9
 9  NS(=O)(=O)c1ccc(NC(=S)NC(=O)C2CC2)cc1 [3d]         87.4
10  CC(C)C(=O)NC(=S)Nc1ccc(S(N)(=O)=O)cc1 [3e]         72.7
11  CCCC(=O)NC(=S)Nc1ccc(S(N)(=O)=O)cc1 [3c]         50.3

----------
- system: MtCA3 (Mycobacterium tuberculosis, UniProt P96878)
- Construct: gene Rv3273
- Sequence (P96878 555-764 limits assumed): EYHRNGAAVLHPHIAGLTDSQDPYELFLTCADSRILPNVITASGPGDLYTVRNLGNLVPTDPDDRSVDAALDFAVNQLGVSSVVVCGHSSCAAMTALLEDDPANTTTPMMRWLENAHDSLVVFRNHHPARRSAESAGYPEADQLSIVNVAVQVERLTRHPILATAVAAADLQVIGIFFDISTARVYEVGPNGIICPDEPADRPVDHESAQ
- assayRemarks: stopped-flow CO2 hydrase assay
- Assay type: biochemical
- conditionSummary: CO2 […]; […] TRIS pH […]; […] Na2SO4; […] h preincubation at room temperature; read-out: KI (nM) ^a / MtCA3 (β-CA)
- From the text: stopped-flow CO2 hydrase assay on MtCA3
In this section, each of the compounds is paired with its reported log10 Ki.
measurementType: log10 Ki (log10 of the value in nM)

In [3]: df
Out[3]:
                                      smiles  measurement
 0  NS(=O)(=O)c1ccc(NC(=S)NC(=O)Cc2cccc3ccccc23)cc1         3.33
 1  NS(=O)(=O)c1ccc(NC(=S)NC(=O)/C=C/c2ccccc2)cc1         2.65
 2  NS(=O)(=O)c1ccc(NC(=S)NC(=O)c2ccc([N+](=O)[O-])cc2)cc1         3.72
 3     CC(C)C(=O)NC(=S)Nc1ccc(S(N)(=O)=O)cc1         3.56
 4    C/C=C/C(=O)NC(=S)Nc1ccc(S(N)(=O)=O)cc1         2.93
 5       CCCC(=O)NC(=S)Nc1ccc(S(N)(=O)=O)cc1         3.97
 6         CC(=O)NC(=S)Nc1ccc(S(N)(=O)=O)cc1         2.79
 7     CCCCCC(=O)NC(=S)Nc1ccc(S(N)(=O)=O)cc1         2.86
 8        CCC(=O)NC(=S)Nc1ccc(S(N)(=O)=O)cc1         2.91
 9    CC(C)CC(=O)NC(=S)Nc1ccc(S(N)(=O)=O)cc1         3.92
10  NS(=O)(=O)c1ccc(NC(=S)NC(=O)C2CCCCC2)cc1         3.85
11     NS(=O)(=O)c1ccc(NC(=S)NC(=O)C2CC2)cc1         3.80

----------
- system: hCA II (Homo sapiens)
- Construct: gene CA2; recombinant, obtained in-house; cytosolic alpha-CA
- assayRemarks: stopped-flow CO2 hydrase assay
- Format: biochemical
- conditionSummary: read-out: KI (nM) ^a / hCA II (α-CA)
Each record gets a class by Ki: category 1: < 9 nM; category 2: ≥ 9 nM and < 50 nM; category 3: ≥ 50 nM

In [3]: df
Out[3]:
                                     smiles         cat
0         CC(=O)NC(=S)Nc1ccc(S(N)(=O)=O)cc1  category 3
1     CCCCCC(=O)NC(=S)Nc1ccc(S(N)(=O)=O)cc1  category 2
2  NS(=O)(=O)c1ccc(NC(=S)NC(=O)C2CCCCC2)cc1  category 2
3  NS(=O)(=O)c1ccc(NC(=S)NC(=O)Cc2cccc3ccccc23)cc1  category 2
4     NS(=O)(=O)c1ccc(NC(=S)NC(=O)C2CC2)cc1  category 3
5        CCC(=O)NC(=S)Nc1ccc(S(N)(=O)=O)cc1  category 2
6    C/C=C/C(=O)NC(=S)Nc1ccc(S(N)(=O)=O)cc1  category 3
7  NS(=O)(=O)c1ccc(NC(=S)NC(=O)c2ccc([N+](=O)[O-])cc2)cc1  category 1
8       CCCC(=O)NC(=S)Nc1ccc(S(N)(=O)=O)cc1  category 1
9    CC(C)CC(=O)NC(=S)Nc1ccc(S(N)(=O)=O)cc1  category 1

----------
- system: MtCA1 (Mycobacterium tuberculosis, UniProt P9WPJ7)
- Sequence (P9WPJ7 2-163): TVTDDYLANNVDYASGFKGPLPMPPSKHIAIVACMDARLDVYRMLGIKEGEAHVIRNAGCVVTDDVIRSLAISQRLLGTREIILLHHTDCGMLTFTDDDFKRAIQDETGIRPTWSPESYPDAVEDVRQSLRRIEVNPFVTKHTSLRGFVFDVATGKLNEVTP
- assayRemarks: stopped-flow CO2 hydrase assay
- Format: biochemical
- conditionSummary: read-out: KI (nM) ^a / MtCA1 (β-CA)
// reported Ki for each item listed
measurementType: Ki (nM)

>>> print(df.to_string())
                                      smiles                                    system  measurement
 0    C/C=C/C(=O)NC(=S)Nc1ccc(S(N)(=O)=O)cc1  MtCA1 (Mycobacterium tuberculosis, UniProt P9WPJ7)         2420
 1     CCCCCC(=O)NC(=S)Nc1ccc(S(N)(=O)=O)cc1  MtCA1 (Mycobacterium tuberculosis, UniProt P9WPJ7)         3510
 2  NS(=O)(=O)c1ccc(NC(=S)NC(=O)/C=C/c2ccccc2)cc1  MtCA1 (Mycobacterium tuberculosis, UniProt P9WPJ7)          224
 3    CC(C)CC(=O)NC(=S)Nc1ccc(S(N)(=O)=O)cc1  MtCA1 (Mycobacterium tuberculosis, UniProt P9WPJ7)          782
 4  NS(=O)(=O)c1ccc(NC(=S)NC(=O)Cc2cccc3ccccc23)cc1  MtCA1 (Mycobacterium tuberculosis, UniProt P9WPJ7)          962
 5       CCCC(=O)NC(=S)Nc1ccc(S(N)(=O)=O)cc1  MtCA1 (Mycobacterium tuberculosis, UniProt P9WPJ7)          784
 6         CC(=O)NC(=S)Nc1ccc(S(N)(=O)=O)cc1  MtCA1 (Mycobacterium tuberculosis, UniProt P9WPJ7)          897
 7     CC(C)C(=O)NC(=S)Nc1ccc(S(N)(=O)=O)cc1  MtCA1 (Mycobacterium tuberculosis, UniProt P9WPJ7)          369
 8  NS(=O)(=O)c1ccc(NC(=S)NC(=O)C2CCCCC2)cc1  MtCA1 (Mycobacterium tuberculosis, UniProt P9WPJ7)         6670
 9        CCC(=O)NC(=S)Nc1ccc(S(N)(=O)=O)cc1  MtCA1 (Mycobacterium tuberculosis, UniProt P9WPJ7)          252
10  NS(=O)(=O)c1ccc(NC(=S)NC(=O)c2ccc([N+](=O)[O-])cc2)cc1  MtCA1 (Mycobacterium tuberculosis, UniProt P9WPJ7)          868
11     NS(=O)(=O)c1ccc(NC(=S)NC(=O)C2CC2)cc1  MtCA1 (Mycobacterium tuberculosis, UniProt P9WPJ7)         95.2

----------
- system: MtCA2 (Mycobacterium tuberculosis)
- Sequence (P9WPJ9 whole entry, looked up): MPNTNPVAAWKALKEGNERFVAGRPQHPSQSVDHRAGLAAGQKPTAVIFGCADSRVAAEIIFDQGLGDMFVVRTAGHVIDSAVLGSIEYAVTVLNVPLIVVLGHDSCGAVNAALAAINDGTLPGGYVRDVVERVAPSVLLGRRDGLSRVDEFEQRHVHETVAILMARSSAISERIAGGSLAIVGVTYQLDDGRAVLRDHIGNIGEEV
- assayRemarks: stopped-flow CO2 hydrase assay
- Format: biochemical
- conditionSummary: read-out: KI (nM) ^a / MtCA2 (β-CA)
Reported values of Ki for individual entries
measurementType: Ki (nM)

>>> df
                                      smiles  measurementtype  unitstext  measurement
 0         CC(=O)NC(=S)Nc1ccc(S(N)(=O)=O)cc1               Ki         nM          4.4
 1  NS(=O)(=O)c1ccc(NC(=S)NC(=O)c2ccc([N+](=O)[O-])cc2)cc1               Ki         nM          4.8
 2    C/C=C/C(=O)NC(=S)Nc1ccc(S(N)(=O)=O)cc1               Ki         nM          9.2
 3     CCCCCC(=O)NC(=S)Nc1ccc(S(N)(=O)=O)cc1               Ki         nM          3.4
 4    CC(C)CC(=O)NC(=S)Nc1ccc(S(N)(=O)=O)cc1               Ki         nM         21.1
 5  NS(=O)(=O)c1ccc(NC(=S)NC(=O)Cc2cccc3ccccc23)cc1               Ki         nM          4.6
 6  NS(=O)(=O)c1ccc(NC(=S)NC(=O)/C=C/c2ccccc2)cc1               Ki         nM          8.1
 7     NS(=O)(=O)c1ccc(NC(=S)NC(=O)C2CC2)cc1               Ki         nM          4.2
 8     CC(C)C(=O)NC(=S)Nc1ccc(S(N)(=O)=O)cc1               Ki         nM         57.1
 9       CCCC(=O)NC(=S)Nc1ccc(S(N)(=O)=O)cc1               Ki         nM          7.6
10        CCC(=O)NC(=S)Nc1ccc(S(N)(=O)=O)cc1               Ki         nM          5.4
11  NS(=O)(=O)c1ccc(NC(=S)NC(=O)C2CCCCC2)cc1               Ki         nM          8.4
